Target System: Dihydroorotase (Bacillus anthracis, UniProt Q81WF0)
Sequence (Q81WF0 whole entry): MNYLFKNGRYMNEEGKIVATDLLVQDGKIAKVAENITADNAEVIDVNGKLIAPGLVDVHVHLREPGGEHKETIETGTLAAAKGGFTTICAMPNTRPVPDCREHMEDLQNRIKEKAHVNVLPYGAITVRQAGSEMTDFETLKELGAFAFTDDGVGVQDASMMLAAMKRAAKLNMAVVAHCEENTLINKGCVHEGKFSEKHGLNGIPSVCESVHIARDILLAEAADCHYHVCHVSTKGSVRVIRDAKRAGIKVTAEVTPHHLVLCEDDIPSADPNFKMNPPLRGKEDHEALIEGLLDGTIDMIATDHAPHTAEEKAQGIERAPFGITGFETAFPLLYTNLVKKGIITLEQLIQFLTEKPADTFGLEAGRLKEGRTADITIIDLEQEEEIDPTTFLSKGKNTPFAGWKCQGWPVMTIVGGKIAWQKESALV
Procedure Details: Binding affinity to Bacillus anthracis Sterne His-tagged DHOase expressed in Escherichia coli BL21(DE3) Gold cells by surface plasmon resonance analysis
Parameters: species or system Bacillus anthracis str. Sterne
Condition: read-out: Kd
Experimental Endpoint: Kd (µM)
Field: numeric (µM). Do not append units.

Measured Kd, COc1ccc2[nH]c3c(c2c1)CCNC3 : 588

Kd in this record for COc1ccc2[nH]c3c(c2c1)CN(C(C)=O)CC3 : 205

According to the records, this compound CCC(=O)Nc1cc(OC)cc(OC)c1 displays Kd of 157

Memo: COc1ccc2[nH]c3c(c2c1)CCNC31CCOCC1 , reported Kd: 380

Measured Kd of CCC(=O)Nc1ccc(OC)cc1OC : 170

----------
Exercise: state measured Kd for each of the molecules provided.
Target System: Dihydroorotase (Bacillus anthracis)
Procedure Details: Binding affinity to Bacillus anthracis Sterne His-tagged DHOase expressed in Escherichia coli BL21(DE3) Gold cells by surface plasmon resonance analysis
Parameters: species or system Bacillus anthracis str. Sterne
Condition: read-out: Kd

Lab note: molecule COc1ccc2[nH]c3c(c2c1)CCNC3(NC#N)SC (centres undefined) tested on Dihydroorotase (Bacillus anthracis); recorded Kd was 21 to 119 µM

Item Cn1ccc2c(CO)cccc21 ; assay system Dihydroorotase (Bacillus anthracis); Kd reported as 67 to 334 µM

The molecule CCC1NCCn2cccc21 (centres undefined) on Dihydroorotase (Bacillus anthracis): Kd was 67 to 334 µM

// molecule CCS(=O)(=O)N(C)c1ccc(C(=O)N2CCCC2)cc1 , assay Dihydroorotase (Bacillus anthracis), Kd value: 67 to 334 µM
